# TARGET_OR_SYSTEM: AtSOT18 (Arabidopsis thaliana, UniProt Q9C9C9)
# Sequence (Q9C9C9 1-350): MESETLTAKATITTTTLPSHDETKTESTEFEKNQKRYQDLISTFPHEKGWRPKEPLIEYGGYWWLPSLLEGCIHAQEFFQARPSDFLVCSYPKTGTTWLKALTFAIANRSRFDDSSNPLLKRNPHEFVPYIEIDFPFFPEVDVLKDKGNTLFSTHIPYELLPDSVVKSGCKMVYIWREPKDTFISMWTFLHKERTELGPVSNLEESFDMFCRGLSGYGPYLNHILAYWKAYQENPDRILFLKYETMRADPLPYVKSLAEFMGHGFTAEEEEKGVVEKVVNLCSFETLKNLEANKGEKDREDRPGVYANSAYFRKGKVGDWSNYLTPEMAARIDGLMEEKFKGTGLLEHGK
PROPERTY_MEASURED: Kd (µM)
Answers are plain numbers, in µM.

Request: Form field - read-out: Kd; system: AtSOT18 (Arabidopsis thaliana, UniProt Q9C9C9); submitted item: Nc1ncnc2c1ncn2[C@@H]1O[C@H](COP(=O)(O)OS(=O)(=O)O)[C@@H](OP(=O)(O)O)[C@H]1O [PAPS, 3′-phosphoadenosine 5′-phosphosulphate]
Result: 4.2

* * *

# TARGET_OR_SYSTEM: UniProtKB Q9C9C9
# Sequence (Q9C9C9 26-347): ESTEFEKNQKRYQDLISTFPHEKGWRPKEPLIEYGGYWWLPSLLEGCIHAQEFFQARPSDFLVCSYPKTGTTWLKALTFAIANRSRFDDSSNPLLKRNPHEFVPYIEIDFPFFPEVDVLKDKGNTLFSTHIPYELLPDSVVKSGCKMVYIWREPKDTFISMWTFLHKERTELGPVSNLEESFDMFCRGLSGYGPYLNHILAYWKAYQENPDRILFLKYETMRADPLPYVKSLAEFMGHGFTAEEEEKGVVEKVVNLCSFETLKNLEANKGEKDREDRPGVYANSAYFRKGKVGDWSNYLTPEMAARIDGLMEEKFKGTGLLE
PROPERTY_MEASURED: Ki
Number first, unit second.

Request: Which measured Ki value corresponds to Nc1ncnc2c1ncn2[C@@H]1O[C@H](COP(=O)(O)O)[C@@H](OP(=O)(O)O)[C@H]1O [PAP, 3′-phosphoadenosine 5′-phosphate] ?
Result: 3 µM
